Data origin: patent EP1828247B1

system-name: West Nile virus strain USA99b (strain 385-99), whole virus (West Nile virus strain 385-99 (USA99b))
protocol-summary: cell-based or functional assay
metric: PRNT90 (µg/mL)
# value in µg/mL; strip the unit string

Input CR5080 (antibody, V domains shown) VH: QITLKESGPTLVKPTQTLTLTCTFSGFSLSTSGVGVGWIRQPPGKALEWLAVIYWNDDKLYRPSLKSRLTITKDTSKNQVVLTMTKMDPVDTATYYCAHRHRYYDISGYYRLFSDAFDIWGQGTMVTVSS VL: QSVLTQPPSVSGAPGQRVTISCTGSSSNIGAGYDVHWYQQLPGTAPKLLIYGNSNRPSGVPDRFSGSKSGTSASLAITGLQAEDEADYYCQSYDSSLSGWAFGGGTKLTVLG . Output PRNT90: 0.08
